biological target: dihydrodipicolinate reductase (DHPR) (Escherichia coli, UniProt P04036); assay: DHPR kinetic assay, spectrophotometric oxidation of NADPH at 340 nm; format: biochemical; settings: IC50 for DHPR, Examples 36/37, FIG. 16/17
Sequence (P04036 whole entry): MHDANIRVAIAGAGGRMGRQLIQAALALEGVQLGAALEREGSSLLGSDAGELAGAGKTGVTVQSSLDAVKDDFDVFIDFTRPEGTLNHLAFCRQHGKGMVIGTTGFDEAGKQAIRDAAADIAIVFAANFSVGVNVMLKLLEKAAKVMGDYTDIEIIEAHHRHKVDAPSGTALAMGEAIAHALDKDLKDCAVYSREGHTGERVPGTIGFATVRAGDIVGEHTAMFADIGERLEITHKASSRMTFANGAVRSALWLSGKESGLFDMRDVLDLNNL
recorded-metric: IC50 (nM)
The answer is to be given in nM; state only the numeric part.

-- ask Please give the measured IC50 for this molecule: O=C1NC(=S)SC1=Cc1ccc(-c2ccc(O)c(C(=O)O)c2)o1
-- reply 2100

====

biological target: dihydrofolate reductase (DHFR) (UniProt P00374); experiment: DHFR kinetic assay, spectrophotometric oxidation of NADH at 340 nm; type: biochemical; settings: read-out: IC50 for DHFR; Examples 36/37, FIG. 16/17
Sequence (P00374 whole entry): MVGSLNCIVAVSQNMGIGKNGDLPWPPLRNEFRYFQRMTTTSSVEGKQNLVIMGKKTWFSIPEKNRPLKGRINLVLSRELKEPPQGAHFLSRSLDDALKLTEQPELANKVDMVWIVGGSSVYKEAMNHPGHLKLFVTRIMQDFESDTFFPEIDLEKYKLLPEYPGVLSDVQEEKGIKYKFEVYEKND
recorded-metric: pIC50
Friendly reminder that pIC50 comes from taking -log10 of the concentration in mol/L.

-- ask Any idea what its pIC50 is? The compound is O=C1NC(=S)SC1=Cc1ccc(-c2ccc(O)c(C(=O)O)c2)o1
-- reply 5.37
